- System: L1210 leukemia ip in BDF1 mice, survival T/C
- measurementNotes: NCI In Vivo Anticancer Drug Screen. Data for tumor model L1210 Leukemia (intraperitoneal) in B6D2F1 (BDF1) mice
- measurementConditions: endpoint: mean survival time; dose: 100.0 mg/kg/injection; schedule: Q01DX001 (ip); vehicle: carboxymethylcellulose (CMC); higher = longer survival
Toxic doses and inconclusive results are not listed.
measuredQuantity: T/C

Some compounds with known T/C results, for comparison:
O=C1C=C(c2ccccc2)C(c2ccccc2)=C1; 95 % of control
Cc1ccnc(NC(=O)NCCCl)c1; 103 % of control
CCOC(=O)Nc1cc(NC(c2ccccc2)c2ccccc2)c(N)c(N)n1; 102 % of control
CCOC(=O)OCCc1ccccc1; 106 % of control

Lookup: Endpoint output: T/C of O=C1NC(Cc2ccc(O)cc2)C(=O)N1c1ccccc1O (stereo not drawn) . Value?
Found: 96 % of control
